Form field: mass density (one value per entry).
- Condition Notes: 298.15 K; 101.33 kPa; Liquid; Vibrating tube method
Give just the numeric value; kg/m3 need not be written.

• CC(C)CCl [1-chloro-2-methylpropane] = 871.833
• CC(C)OC(C)C [diisopropyl ether] = 718.289
• CCC(C)Cl (stereo not given) [2-chlorobutane] = 867.474
• CCCCCl [1-chlorobutane] = 880.705

Attention now turns to another entry.
Query :: Query (compound): CC(C)(C)Cl [2-chloro-2-methylpropane] ; field requested: mass density
Result :: 837.096

====

- Condition Notes: 283.15 K; 101.33 kPa; Liquid; Sing-around technique in a fixed-path interferometer
± gives the expanded uncertainty stated by the source.
Form field: speed of sound (one value per entry).

Some solved cases for reference:
• CC(C)CCl [1-chloro-2-methylpropane] = 1141.7 ± 1.2 m/s
• CCC(C)Cl (stereo not given) [2-chlorobutane] = 1127.7 ± 1.2 m/s
• CCCCCl [1-chlorobutane] = 1180.1 ± 1.2 m/s
• CC(C)(C)Cl [2-chloro-2-methylpropane] = 1046.9 ± 1.1 m/s

Attention now turns to another entry.
Query :: Query (molecule): CC(C)OC(C)C [diisopropyl ether] ; field requested: speed of sound
Result :: 1065.5 ± 1.1 m/s

====

- Measurement Notes: refractive index (Na D-line) (dimensionless)
- Condition Notes: 283.15 K; 101.33 kPa; Liquid; Standard Abbe refractometry
Result Type: refractive index
Give the figure by itself; no unit, no explanation.

Some solved cases for reference:
* CCCCCl | 1.4075
* CCC(C)Cl (stereo not given) | 1.40226
* CC(C)CCl | 1.40354
* CC(C)(C)Cl | 1.39115

Attention now turns to another entry.
Query :: Query (compound): CC(C)OC(C)C ; field requested: refractive index
Result :: 1.37358

====

Form field: speed of sound (one value per entry).
- Condition Notes: 288.15 K; 101.33 kPa; Liquid; Sing-around technique in a fixed-path interferometer
Give just the numeric value; m/s need not be written.

Query :: Query (molecule): CC(C)(C)Cl ; field requested: speed of sound
Result :: 1025.5

Query :: Try the molecule CC(C)CCl
Result :: 1120.7

Query :: Try the molecule CCCCCl
Result :: 1159.5

Query :: Try the molecule CCC(C)Cl (stereo not given)
Result :: 1107.2

Query :: Try the molecule CC(C)OC(C)C
Result :: 1043.1

====

Form field: mass density (one value per entry).
- Condition Notes: 283.15 K; 101.33 kPa; Liquid; Vibrating tube method
Give just the numeric value; kg/m3 need not be written.

Some solved cases for reference:
* CC(C)OC(C)C | 733.833
* CC(C)(C)Cl | 855.249
* CCCCCl | 897.339
* CCC(C)Cl (stereo not given) | 884.34

Attention now turns to another entry.
Query :: Query (compound): CC(C)CCl ; field requested: mass density
Result :: 888.845

====

Form field: speed of sound (one value per entry).
- Condition Notes: 298.15 K; 101.33 kPa; Liquid; Sing-around technique in a fixed-path interferometer
Give just the numeric value; m/s need not be written.

- CCC(C)Cl (stereo not given): 1066.2
- CC(C)(C)Cl: 983.25
- CCCCCl: 1118.2
- CC(C)OC(C)C: 998.27

Query :: Query (compound): CC(C)CCl ; field requested: speed of sound
Result :: 1078.7

====

- Condition Notes: 308.15 K; 101.33 kPa; Liquid; Sing-around technique in a fixed-path interferometer
So basically: is speed of sound under 1000 m/s? Then TRUE. Not under? Then FALSE.

Consider the following illustrative entries.
• CCCCCl = FALSE
• CC(C)OC(C)C = TRUE

Query :: Lab note: confirm whether the reported speed of sound for this compound is below 1000 m/s, equality not counting. compound: CC(C)(C)Cl
Result :: TRUE

Query :: Try the compound CC(C)CCl
Result :: FALSE

====

- Measurement Notes: refractive index (Na D-line) (dimensionless)
- Condition Notes: 288.15 K; 101.33 kPa; Liquid; Standard Abbe refractometry
Result Type: refractive index
Give the figure by itself; no unit, no explanation.

Some solved cases for reference:
• CC(C)(C)Cl = 1.38821
• CC(C)OC(C)C = 1.37084
• CCCCCl = 1.40481
• CC(C)CCl = 1.4008

Attention now turns to another entry.
Query :: Query (compound): CCC(C)Cl (stereo not given) ; field requested: refractive index
Result :: 1.39953

====

- Condition Notes: 308.15 K; 101.33 kPa; Liquid; Vibrating tube method
Form field: mass density (one value per entry).
Give just the numeric value; kg/m3 need not be written.

* CC(C)OC(C)C [diisopropyl ether] | 707.727

Query :: Query (compound): CCCCCl [1-chlorobutane] ; field requested: mass density
Result :: 869.585

Query :: Try the compound CCC(C)Cl (stereo not given) [2-chlorobutane]
Result :: 856.044

Query :: Try the compound CC(C)CCl [1-chloro-2-methylpropane]
Result :: 860.319

Query :: Try the compound CC(C)(C)Cl [2-chloro-2-methylpropane]
Result :: 824.772

====

- Condition Notes: 303.15 K; 101.33 kPa; Liquid; Vibrating tube method
Result Type: mass density (kg/m3)
Give just the numeric value; kg/m3 need not be written.

- CC(C)OC(C)C [diisopropyl ether]: 713.032
- CCC(C)Cl (stereo not given) [2-chlorobutane]: 861.779
- CCCCCl [1-chlorobutane]: 875.204
- CC(C)(C)Cl [2-chloro-2-methylpropane]: 830.958

Attention now turns to another entry.
Query :: Query (compound): CC(C)CCl [1-chloro-2-methylpropane] ; field requested: mass density
Result :: 866.096

====

- Condition Notes: 293.15 K; 101.33 kPa; Liquid; Vibrating tube method
Form field: mass density (one value per entry).
Give just the numeric value; kg/m3 need not be written.

- CC(C)(C)Cl: 843.191
- CC(C)CCl: 877.539
- CCC(C)Cl (stereo not given): 873.13
- CCCCCl: 886.335

Attention now turns to another entry.
Query :: Query (compound): CC(C)OC(C)C ; field requested: mass density
Result :: 723.509

====

- Condition Notes: 288.15 K; 101.33 kPa; Liquid; Vibrating tube method
So basically: is mass density under 800 kg/m3? Then t. Not under? Then f.

Consider the following illustrative entries.
- CCC(C)Cl (stereo not given): f
- CCCCCl: f
- CC(C)(C)Cl: f
- CC(C)CCl: f

Query :: Lab note: confirm whether the reported mass density for this molecule is below 800 kg/m3, equality not counting. molecule: CC(C)OC(C)C
Result :: t

====

Form field: refractive index (one value per entry).
- Measurement Notes: refractive index (Na D-line) (dimensionless)
- Condition Notes: 298.15 K; 101.33 kPa; Liquid; Standard Abbe refractometry
Give the figure by itself; no unit, no explanation.

Some solved cases for reference:
* CCC(C)Cl (stereo not given) | 1.39404
* CC(C)OC(C)C | 1.36525
* CC(C)CCl | 1.39529
* CC(C)(C)Cl | 1.38225

Attention now turns to another entry.
Query :: Query (compound): CCCCCl ; field requested: refractive index
Result :: 1.3995

====

- Condition Notes: 313.15 K; 101.33 kPa; Liquid; Vibrating tube method
± gives the expanded uncertainty stated by the source.
Form field: mass density (one value per entry).
Be sure to follow the number with its unit.

Some solved cases for reference:
- CC(C)OC(C)C: 702.378 ± 0.25 kg/m3
- CC(C)(C)Cl: 818.536 ± 0.24 kg/m3
- CCC(C)Cl (stereo not given): 850.266 ± 0.23 kg/m3
- CC(C)CCl: 854.502 ± 0.23 kg/m3

Attention now turns to another entry.
Query :: Query (compound): CCCCCl ; field requested: mass density
Result :: 863.882 ± 0.23 kg/m3
